- Test system: DU-145 prostate
- ASSAY_OVERVIEW: NCI tumour cell line growth inhibition, 48 h
ENDPOINT_LABEL: TGI (µM)
The reply should be a number in µM, with the unit left off.

Take a look at these entries with their results.
MOL_SMILES: COC(=O)c1ccc(CCC2=CC(=O)C(Br)=CC2=O)cc1
TGI [µM]: 32
//
MOL_SMILES: COc1cc(CCNC2=CC(=O)c3cccnc3C2=O)ccc1O
TGI [µM]: 3.11
//
MOL_SMILES: COC(=O)c1c(O)ccc2c1c1c(n2Cc2ccc(OC)cc2)C(=O)c2ccccc2C1=O
TGI [µM]: 52.5

Notebook: "COc1ccc(OC)c(C(=O)/C=C/c2cc(O)c(O)cc2F)c1" , TGI read as 15.1

---

The following molecules are shown together with reported TGI values.
- Tested on: XF 498 CNS
- ASSAY_OVERVIEW: NCI tumour cell line growth inhibition, 48 h

MOLECULE: CC1Cc2c(N)nc(NN)nc2NC1=O (stereo unspecified)
SUBJECT_OF_TEST: XF 498 CNS
MEASURED_VALUE: > 100 µM

MOLECULE: Cc1cccc(C)c1NC(=O)/C(Cl)=C(/Cl)C(=O)O
SUBJECT_OF_TEST: XF 498 CNS
MEASURED_VALUE: 28.6 µM

MOLECULE: COc1ccc2c([nH]c3cc(O)c(C)cc32)c1C=O
SUBJECT_OF_TEST: XF 498 CNS
MEASURED_VALUE: > 25 µM

MOLECULE: OCC(O)C(O)C(O)C1SC(c2ccccc2)=NN1c1ccccc1 (stereo unspecified)
SUBJECT_OF_TEST: XF 498 CNS
MEASURED_VALUE: > 78.1 µM

MOLECULE: CN(C)CC(/C(Cc1ccccc1)=N\NC(=O)c1ccncc1)c1ccccc1 (stereo unspecified)
SUBJECT_OF_TEST: XF 498 CNS
MEASURED_VALUE: > 100 µM

MOLECULE: Cn1nc(-c2ccccc2)c(N=[N+]=[N-])cc1=O
SUBJECT_OF_TEST: XF 498 CNS
MEASURED_VALUE: > 100 µM

MOLECULE: O=C1CCCCCCCCCCC(=O)C2CCOCCOCCOCCC1Cc1cccc(n1)C2
SUBJECT_OF_TEST: XF 498 CNS
MEASURED_VALUE: > 100 µM

MOLECULE: CCOC(=O)/C(=C\c1ccc(OCc2ccccc2)c(OC)c1)C(=O)c1ccccc1
SUBJECT_OF_TEST: XF 498 CNS
MEASURED_VALUE: 32.3 µM

MOLECULE: O=C(CNC(=O)OCc1ccccc1)Oc1ccccc1
SUBJECT_OF_TEST: XF 498 CNS
MEASURED_VALUE: > 100 µM

MOLECULE: COC(=O)/C=C(C)/C=C/c1cc(C(C)=O)c(C)o1
SUBJECT_OF_TEST: XF 498 CNS
MEASURED_VALUE: > 100 µM

Notebook: COC1/C(=C\C(=O)OC(C)(C)C)c2ccccc2N1C(C)=O (stereo unspecified) , TGI read as > 100 µM

---

- Test system: HCT-116 colon
- ASSAY_OVERVIEW: NCI tumour cell line growth inhibition, 48 h
ENDPOINT_LABEL: TGI (µM)
The reply should be a number in µM, with the unit left off.

MOLECULE: CN(C)Cc1cc(C(C)(C)C)cc(CNC2CCCCC2)c1O
TGI (µM): 71.5
//
MOLECULE: Cn1ccc2c(NCCN)c3c(c(NCCN)c21)C(=O)c1ccccc1C3=O
TGI (µM): 4.41
//
MOLECULE: O=[N+]([O-])c1ccc(-c2nc(N(CCO)CCO)c3ccccc3n2)o1
TGI (µM): 1.24
//
MOLECULE: O=C1CSC(c2cccc(Cl)c2)N1c1c(O)c(Cl)cc(Br)c1Cl (stereo unspecified)
TGI (µM): 28.8

Now for the molecule whose TGI we want.
Notebook: "O=C(Nc1ccc(Cl)cc1)c1cccc([N+](=O)[O-])c1O" , TGI read as 20
